Measured Kd by item
ASSAY SYSTEM: IGF1R (human, UniProt P08069)
Sequence (P08069 31-932): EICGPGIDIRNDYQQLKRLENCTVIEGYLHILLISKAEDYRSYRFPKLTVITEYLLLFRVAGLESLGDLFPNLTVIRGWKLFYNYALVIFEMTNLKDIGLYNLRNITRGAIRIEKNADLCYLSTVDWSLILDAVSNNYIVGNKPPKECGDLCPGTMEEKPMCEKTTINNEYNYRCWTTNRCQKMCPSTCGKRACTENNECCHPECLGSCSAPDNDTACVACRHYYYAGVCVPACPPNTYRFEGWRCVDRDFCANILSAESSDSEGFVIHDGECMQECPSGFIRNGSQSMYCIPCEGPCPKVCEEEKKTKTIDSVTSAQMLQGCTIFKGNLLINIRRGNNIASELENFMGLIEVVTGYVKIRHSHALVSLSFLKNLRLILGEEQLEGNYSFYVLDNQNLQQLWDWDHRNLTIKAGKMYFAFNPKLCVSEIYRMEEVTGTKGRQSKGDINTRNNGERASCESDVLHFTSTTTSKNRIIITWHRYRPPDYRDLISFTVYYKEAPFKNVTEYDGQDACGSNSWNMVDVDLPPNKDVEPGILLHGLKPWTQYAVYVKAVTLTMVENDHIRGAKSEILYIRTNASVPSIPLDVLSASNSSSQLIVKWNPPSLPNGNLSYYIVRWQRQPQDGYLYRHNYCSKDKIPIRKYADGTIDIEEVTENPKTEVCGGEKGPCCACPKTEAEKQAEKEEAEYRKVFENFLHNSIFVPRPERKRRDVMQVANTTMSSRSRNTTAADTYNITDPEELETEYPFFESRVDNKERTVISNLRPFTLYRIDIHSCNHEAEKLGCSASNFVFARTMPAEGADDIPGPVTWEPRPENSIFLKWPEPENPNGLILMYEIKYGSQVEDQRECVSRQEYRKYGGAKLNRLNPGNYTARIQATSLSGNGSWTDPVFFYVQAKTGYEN
ASSAY EXPLANATION: SPR

>  <BINDER>
IGF1R3_4_25 (antibody, V domains shown) VH: QVKCEESGGGLVQAGGSLRLSCVCSEYPSNFYAMSWFRQAPGKEREFVAGVSRDGLTTLYADSVKGRFTMSRDNAKNTVDLQMNSVKAEDTAVYYCAIVITGVWNKVDVNSRSYHYWGQGTQVTVSS

>  <UNIT NAME>
nM

>  <Kd>
2.3

$$$$
>  <BINDER>
IGF1R5_4_25 (antibody, V domains shown) VH: QVKCEESGGGLVQAGGSLRLSCACSGRTIDNYAMAWSRQAPGKDREFVATIDWGDGGARYANSVKGRFTISRDNAKGTMYLQMNNLEPEDTAVYSCAMARQSRVNLDVARYDYWGQGTQVTVSS

>  <UNIT NAME>
nM

>  <Kd>
0.8

$$$$
>  <BINDER>
IGF1R4 (antibody, V domains shown) VH: QVKLEESGGGLVQAGGSLRLSCEVSGGTVSPTAMGWFRQAPGKEREFVGHITWSRGTTRVASSVKDRFTISRDSAKNTVYLQMNSLKSEDTAVYYCAASTFLRILPEESAYTYWGQGTQVTVSS

>  <UNIT NAME>
nM

>  <Kd>
0.3

$$$$
>  <BINDER>
IGF1R4_4_25 (antibody, V domains shown) VH: QVKCEESGGGLVQAGGSLRLSCECSGGTVSPTAMGWFRQAPGKEREFVGHITWSRGTTRVASSVKDRFTISRDSAKNTVYLQMNSLKSEDTAVYYCAASTFLRILPEESAYTYWGQGTQVTVSS

>  <UNIT NAME>
nM

>  <Kd>
0.5

$$$$
>  <BINDER>
IGF1R3_22_88 (antibody, V domains shown) VH: QVKLEESGGGLVQAGGSLRLCCVASEYPSNFYAMSWFRQAPGKEREFVAGVSRDGLTTLYADSVKGRFTMSRDNAKNTVCLQMNSVKAEDTAVYYCAIVITGVWNKVDVNSRSYHYWGQGTQVTVSS

>  <UNIT NAME>
nM

>  <Kd>
0.8

$$$$
>  <BINDER>
IGF1R3 (antibody, V domains shown) VH: QVKLEESGGGLVQAGGSLRLSCVASEYPSNFYAMSWFRQAPGKEREFVAGVSRDGLTTLYADSVKGRFTMSRDNAKNTVDLQMNSVKAEDTAVYYCAIVITGVWNKVDVNSRSYHYWGQGTQVTVSS

>  <UNIT NAME>
nM

>  <Kd>
0.9

$$$$
>  <BINDER>
IGF1R4_22_88 (antibody, V domains shown) VH: QVKLEESGGGLVQAGGSLRLCCEVSGGTVSPTAMGWFRQAPGKEREFVGHITWSRGTTRVASSVKDRFTISRDSAKNTVCLQMNSLKSEDTAVYYCAASTFLRILPEESAYTYWGQGTQVTVSS

>  <UNIT NAME>
nM

>  <Kd>
0.5

$$$$
>  <BINDER>
IGF1R3_6_119 (designed binder) QVKLECSGGGLVQAGGSLRLSCVASEYPSNFYAMSWFRQAPGKEREFVAGVSRDGLTTLYADSVKGRFTMSRDNAKNTVDLQMNSVKAEDTAVYYCAIVITGVWNKVDVNSRSYHYWCQGTQVTVSS

>  <UNIT NAME>
nM

>  <Kd>
1.4

$$$$

Reference source: patent US20260365739
